Assign cell-surface Lgr5 expression to each entry below.
Tested on: Lgr5 (MarsCy1-Lgr5-EGFP, U2OS)
assay-protocol: cell-surface Lgr5 expression (SCi1 fluorescence, background-subtracted) relative to WT DMSO (fold of DMSO control); higher = more Lgr5 at the plasma membrane, active = hit call of the paper
run-conditions: U2OS MarsCy1-Lgr5-EGFP stable; treatment time: overnight; 16 µM; library: Johns Hopkins Clinical Compound Library
Counter-ions that a name gives are not always drawn. Hit rate of the full screen: of about 1,200 compounds, about 50 (4%) showed activity. The list comes from a sample in which actives are over-represented; it also holds close analogues and randomly drawn compounds.
One number for each entry.

Some solved cases for reference:
CC(=O)OCC(=O)[C@H]1CC[C@H]2[C@@H]3CCC4=CC(=O)CC[C@]4(C)[C@H]3CC[C@]12C	1.01
O=C([O-])C(O)C(O)C(=O)[O-].[K+].[Na+] (configuration not stated) [Potassium sodium tartrate tetrahydrate]	1.1

Record cell-surface Lgr5 expression per entry; entries follow.
1. CC(=O)OCC(=O)[C@@]1(O)[C@@H](C)C[C@H]2[C@@H]3CCC4=CC(=O)C=C[C@]4(C)[C@@]3(F)[C@@H](O)C[C@@]21C
2. Cc1ncc(COP(=O)(O)O)c(C=O)c1O [Pyridoxal-5-phosphate]
3. O=C[C@H](O)[C@@H](O)[C@H](O)[C@H](O)C(=O)[O-].[Na+] [Sodium glucuronate (D-Glucuronic acid)]
4. N=C(N)N [Guanidine hydrochloride]
5. O=CC(O)C(O)C(O)C(O)CO (configuration not stated) [Glucose (D)]
6. CC1(C)S[C@@H]2[C@H](NC(=O)COc3ccccc3)C(=O)N2[C@H]1C(=O)O
7. N=C(N)N1Cc2ccccc2C(O)C1 (configuration not stated) [4-Hydroxydebrisoquin]
8. C=CC1=C(C(=O)O)N2C(=O)[C@@H](NC(=O)/C(=N\O)c3csc(N)n3)[C@H]2SC1 [Cefdinir]

[1.59, 0.951, 1.32, 0.767, 1.02, 0.694, 1.07, 1.06]

For every item in the list below, what is its measured cell-surface Lgr5 expression?
1. C[C@H]1C[C@H]2[C@@H]3CCC4=CC(=O)C=C[C@]4(C)[C@@]3(F)[C@@H](O)C[C@]2(C)[C@@]1(O)C(=O)CO
2. CC(=O)OCC(=O)[C@@]1(O)[C@@H](C)C[C@H]2[C@@H]3CCC4=CC(=O)C=C[C@]4(C)[C@@]3(F)[C@@H](O)C[C@@]21C [Betamethasone 21-acetate]
3. CC(=O)SCC(Cc1ccccc1)C(=O)NCC(=O)OCc1ccccc1 (configuration not stated) [Racecadotril]

1.45
1.53
1.24

Respectfully, I request cell-surface Lgr5 expression for each entry included below.
1. CC1(C)O[C@@H]2C[C@H]3[C@@H]4C[C@H](F)C5=CC(=O)CC[C@]5(C)[C@H]4[C@@H](O)C[C@]3(C)[C@]2(C(=O)CO)O1
2. O=P([O-])(O)O.[K+] [Potassium phosphate monobasic]
3. CCOC(=O)[C@H](CCc1ccccc1)N[C@H]1CCc2ccccc2N(CC(=O)O)C1=O [Benazepril hydrochloride]
4. CC1(C)O[C@@H]2C[C@H]3[C@@H]4C[C@H](F)C5=CC(=O)C=C[C@]5(C)[C@H]4[C@@H](O)C[C@]3(C)[C@]2(C(=O)CO)O1 [Flunisolide]
5. c1ccc(-c2ccc(C(c3ccccc3)n3ccnc3)cc2)cc1 (configuration not stated) [Bifonazole]
6. C[C@H]1C[C@H]2[C@@H]3CCC4=CC(=O)C=C[C@]4(C)[C@@]3(F)[C@@H](O)C[C@]2(C)[C@@]1(O)C(=O)COP(=O)(O)O [Betamethasone sodium phosphate]

1: 1.55; 2: 1.24; 3: 0.872; 4: 1.47; 5: 1.04; 6: 1.35

Dear reader, for each entry below, please note its cell-surface Lgr5 expression.
1. C[C@H](CCC(=O)O)[C@H]1CC[C@H]2[C@@H]3[C@@H](O)C[C@@H]4C[C@H](O)CC[C@]4(C)[C@H]3CC[C@]12C [Ursodiol (Ursodeoxycholic acid)]
2. C[C@@H]1CCC[C@H](C)N1NC(=O)c1ccc(Cl)c(S(N)(=O)=O)c1 [Clopamide]
3. O=P([O-])([O-])[O-].O=P([O-])([O-])[O-].[Ca+2].[Ca+2].[Ca+2] [Calcium phosphate tribasic]

1: 0.801; 2: 1.3; 3: 0.836
